target: CYP2C9 (Homo sapiens, UniProt P11712); construct: from tissue; host or cells: human liver microsomes; experiment: Cytochrome P450 isozyme inhibitory activity test, CYP2C9; type: in vitro ADME; conditions: liver microsomes; human liver microsome
Sequence (P11712 whole entry): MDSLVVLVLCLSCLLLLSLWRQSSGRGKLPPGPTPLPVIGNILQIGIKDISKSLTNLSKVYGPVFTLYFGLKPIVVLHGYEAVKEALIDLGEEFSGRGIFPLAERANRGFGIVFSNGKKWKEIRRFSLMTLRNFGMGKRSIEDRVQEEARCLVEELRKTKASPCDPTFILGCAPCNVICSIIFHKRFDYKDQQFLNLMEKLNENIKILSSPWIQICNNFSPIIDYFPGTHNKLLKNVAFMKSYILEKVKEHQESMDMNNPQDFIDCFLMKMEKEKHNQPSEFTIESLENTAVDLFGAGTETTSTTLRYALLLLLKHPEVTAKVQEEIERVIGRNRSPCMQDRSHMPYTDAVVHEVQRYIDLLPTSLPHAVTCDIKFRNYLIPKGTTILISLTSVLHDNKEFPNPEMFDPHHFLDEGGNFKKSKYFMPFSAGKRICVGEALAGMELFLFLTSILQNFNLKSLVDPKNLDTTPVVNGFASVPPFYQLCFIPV
quantity_name: IC50 at 10 min (µM)
One number for each entry, in µM.

Prompt line: What value of IC50 at 10 min has been recorded for this entry: COCCN1C[C@@H](n2ccc(F)c2)[C@H](NC(=O)Nc2c(C)c(-c3cnc(C4(F)COC4)nc3)nn2-c2ccccc2)C1
Response line: 39.1

====

assay: In vivo pharmacokinetic study in rats after single administration; conditions: male, Sprague Dawley, rat, plasma, 2 mg/kg, 2 mpk intravenous injection
quantity_name: clearance (mL/min/kg)
Answers are plain numbers, in mL/min/kg.

Prompt line: What value of clearance has been recorded for this entry: COCCN1C[C@@H](n2ccc(F)c2)[C@H](NC(=O)Nc2c(C)c(-c3cnc(C4(F)COC4)nc3)nn2-c2ccccc2)C1
Response line: 22.4

====

experiment: In vivo pharmacokinetic study in rats after single administration; settings: male, Sprague Dawley, rat, plasma, 300 mg/kg, 300 mpk oral administration
quantity_name: Cmax

Prompt line: What value of Cmax has been recorded for this entry: COCCN1C[C@@H](n2ccc(F)c2)[C@H](NC(=O)Nc2c(C)c(-c3cnc(C4(F)COC4)nc3)nn2-c2ccccc2)C1
Response line: 48.5 µM

====

assay: In vivo pharmacokinetic study in mice after single administration; design: species or system CD-1 mice; conditions: male, CD-1, mouse, plasma, 2 mg/kg, 2 mpk intravenous injection
quantity_name: half-life (min)
Give bare numbers, in min.

Prompt line: What value of half-life has been recorded for this entry: COCCN1C[C@@H](n2ccc(F)c2)[C@H](NC(=O)Nc2c(C)c(-c3cnc(C4(F)COC4)nc3)nn2-c2ccccc2)C1
Response line: 34.2

====

test: Metabolic stability in human liver microsomes; format: in vitro ADME; conditions: pH 7.4, 0.5 mg protein/mL, read-out: Intrinsic clearance rate of liver microsomes, Human
quantity_name: CLint scaled (mL/min/kg)
Numbers only, in mL/min/kg.

Prompt line: What value of CLint scaled has been recorded for this entry: COCCN1C[C@@H](n2ccc(F)c2)[C@H](NC(=O)Nc2c(C)c(-c3cnc(C4(F)COC4)nc3)nn2-c2ccccc2)C1
Response line: 51.7

====

assay: In vivo pharmacokinetic study in beagle dogs after single administration; conditions: male, dog, plasma, 2 mg/kg, 2 mpk intravenous injection
quantity_name: clearance (mL/min/kg)
Answers are plain numbers, in mL/min/kg.

Prompt line: What value of clearance has been recorded for this entry: COCCN1C[C@@H](n2ccc(F)c2)[C@H](NC(=O)Nc2c(C)c(-c3cnc(C4(F)COC4)nc3)nn2-c2ccccc2)C1
Response line: 12.4

====

test: In vivo pharmacokinetic study in beagle dogs after single administration; settings: male, dog, plasma, 10 mg/kg, 10 mpk oral administration
quantity_name: Tmax (min)
Numbers only, in min.

Prompt line: What value of Tmax has been recorded for this entry: COCCN1C[C@@H](n2ccc(F)c2)[C@H](NC(=O)Nc2c(C)c(-c3cnc(C4(F)COC4)nc3)nn2-c2ccccc2)C1
Response line: 45

====

assay: In vivo pharmacokinetic study in mice after single administration; set-up: species or system CD-1 mice; conditions: male, CD-1, mouse, plasma, 100 mg/kg, 100 mpk oral administration
quantity_name: bioavailability (%)
Give bare numbers, in %.

Prompt line: What value of bioavailability has been recorded for this entry: COCCN1C[C@@H](n2ccc(F)c2)[C@H](NC(=O)Nc2c(C)c(-c3cnc(C4(F)COC4)nc3)nn2-c2ccccc2)C1
Response line: 52.2

====

Molecular target: CYP2C19 (Homo sapiens)
Construct: from tissue; host or cells: human liver microsomes
Sequence (P33261 whole entry): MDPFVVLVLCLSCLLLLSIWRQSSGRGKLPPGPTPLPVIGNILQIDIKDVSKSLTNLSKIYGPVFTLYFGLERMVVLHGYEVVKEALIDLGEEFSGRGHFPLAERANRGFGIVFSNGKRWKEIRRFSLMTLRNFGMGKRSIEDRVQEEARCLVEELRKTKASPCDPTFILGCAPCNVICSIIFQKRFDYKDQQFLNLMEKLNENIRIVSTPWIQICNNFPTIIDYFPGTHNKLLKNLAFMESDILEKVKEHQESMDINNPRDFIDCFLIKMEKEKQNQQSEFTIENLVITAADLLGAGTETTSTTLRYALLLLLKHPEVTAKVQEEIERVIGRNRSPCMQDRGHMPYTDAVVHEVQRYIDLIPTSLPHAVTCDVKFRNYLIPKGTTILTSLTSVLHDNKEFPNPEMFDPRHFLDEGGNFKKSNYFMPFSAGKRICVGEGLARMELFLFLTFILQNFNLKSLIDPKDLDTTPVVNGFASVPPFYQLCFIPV
Experiment: Cytochrome P450 isozyme inhibitory activity test, CYP2C19
Assay type: in vitro ADME
Settings: liver microsomes; human liver microsome
Method: The inhibitory activities of the test compound on different subtypes of human cytochrome P450 isozymes were determined. The test compound, standard inhibitor (100× final concentration), and a mixed substrate working solution were prepared; the microsome frozen in −80° C. refrigerator was thawed. […]
quantity_name: IC50 at 10 min

Prompt line: What value of IC50 at 10 min has been recorded for this entry: COCCN1C[C@@H](n2ccc(F)c2)[C@H](NC(=O)Nc2c(C)c(-c3cnc(C4(F)COC4)nc3)nn2-c2ccccc2)C1 [Compound of formula (I)]
Response line: > 50 µM

====

Experiment: In vivo pharmacokinetic study in rats after single administration
Settings: male, Sprague Dawley, rat, plasma, 2 mg/kg, 2 mpk intravenous injection
Protocol: Male SD rats were used as test animals, and the concentration of the compound in blood was determined after single administration to evaluate the pharmacokinetic behavior. Sprague Dawley rats (male, 200-300 g, 7-9 weeks, Shanghai Charles River Laboratory Animal Co., Ltd.) […]
quantity_name: AUC(0-inf)
Write your answer as a measured quantity: the number, then the unit.

Prompt line: What value of AUC(0-inf) has been recorded for this entry: COCCN1C[C@@H](n2ccc(F)c2)[C@H](NC(=O)Nc2c(C)c(-c3cnc(C4(F)COC4)nc3)nn2-c2ccccc2)C1 [Compound of formula (I)]
Response line: 2.61 µM·h

====

Assay: In vivo pharmacokinetic study in rats after single administration
Settings: male, Sprague Dawley, rat, plasma, 2 mg/kg, 2 mpk intravenous injection, read-out: Vdss
Experimental: Male SD rats were used as test animals, and the concentration of the compound in blood was determined after single administration to evaluate the pharmacokinetic behavior. Sprague Dawley rats (male, 200-300 g, 7-9 weeks, Shanghai Charles River Laboratory Animal Co., Ltd.) […]
quantity_name: Vd (L/kg)
One number for each entry, in L/kg.

Prompt line: What value of Vd has been recorded for this entry: COCCN1C[C@@H](n2ccc(F)c2)[C@H](NC(=O)Nc2c(C)c(-c3cnc(C4(F)COC4)nc3)nn2-c2ccccc2)C1 [Compound of formula (I)]
Response line: 0.81

====

test: In vivo pharmacokinetic study in rats after single administration; conditions: male, Sprague Dawley, rat, plasma, 2 mg/kg, 2 mpk intravenous injection
quantity_name: C0 (µM)
Numbers only, in µM.

Prompt line: What value of C0 has been recorded for this entry: COCCN1C[C@@H](n2ccc(F)c2)[C@H](NC(=O)Nc2c(C)c(-c3cnc(C4(F)COC4)nc3)nn2-c2ccccc2)C1 [Compound of formula (I)]
Response line: 5.38

====

assay: In vivo pharmacokinetic study in beagle dogs after single administration; details: male, dog, plasma, 10 mg/kg, 10 mpk oral administration
quantity_name: Cmax (µM)
Give bare numbers, in µM.

Prompt line: What value of Cmax has been recorded for this entry: COCCN1C[C@@H](n2ccc(F)c2)[C@H](NC(=O)Nc2c(C)c(-c3cnc(C4(F)COC4)nc3)nn2-c2ccccc2)C1
Response line: 10.4

====

assay: In vivo pharmacokinetic study in mice after single administration; parameters: species or system CD-1 mice; details: male, CD-1, mouse, plasma, 2 mg/kg, 2 mpk intravenous injection
quantity_name: C0 (nM)
Numbers only, in nM.

Prompt line: What value of C0 has been recorded for this entry: COCCN1C[C@@H](n2ccc(F)c2)[C@H](NC(=O)Nc2c(C)c(-c3cnc(C4(F)COC4)nc3)nn2-c2ccccc2)C1
Response line: 2720

====

test: In vivo pharmacokinetic study in rats after single administration; conditions: male, Sprague Dawley, rat, plasma, 300 mg/kg, 300 mpk oral administration
quantity_name: bioavailability (%)
Numbers only, in %.

Prompt line: What value of bioavailability has been recorded for this entry: COCCN1C[C@@H](n2ccc(F)c2)[C@H](NC(=O)Nc2c(C)c(-c3cnc(C4(F)COC4)nc3)nn2-c2ccccc2)C1
Response line: 70.5

====

experiment: In vivo pharmacokinetic study in mice after single administration; design: species or system CD-1 mice; settings: male, CD-1, mouse, plasma, 100 mg/kg, 100 mpk oral administration
quantity_name: Tmax
Write your answer as a measured quantity: the number, then the unit.

Prompt line: What value of Tmax has been recorded for this entry: COCCN1C[C@@H](n2ccc(F)c2)[C@H](NC(=O)Nc2c(C)c(-c3cnc(C4(F)COC4)nc3)nn2-c2ccccc2)C1 [Compound of formula (I)]
Response line: 22.8 min
